molecular target: SARS-CoV-2 Spike RBD-Fc (SARS-CoV-2); test: ELISA, RBD-Fc captured via anti-rabbit IgG, concentration-dependent binding

- BINDER: "HK CV38-139 (antibody, V domains shown) VH: EVQLVESGGGLVQPGGSLRLSCAASGFTVSSNYMSWVRQAPGKGLEWVSVFYSGGSTFYADSVKGRFTISRDNSKNTLYLQMNSLRAEDTAVYYCARGHYDLFDYWGQGTLVTVSS VL: DIQLTQSPSFLSASVGDRVTITCRASQGISSYLAWYQQKPGKAPKLLIYAASTLQSGVPSRFSGSGSGTEFTLTISSLQPEDFATYYCQQLNSYPPGTFGPGTKVDIKR"
  EC50: "8.9 ng/mL"
- BINDER: "HK CV38-221 (antibody, V domains shown) VH: EVQLVESGGGLVQPGGSLRLSCAASGITVSSNYMIWVRQAPGKGLEWVSVIYSGGSTYYADSVKGRFTISRDNSKNTLYLQMNSLRAEDTAVYYCARGFGDYYFDYWGQGTLVTVSS VL: EIVLTQSPGTLSLSPGERATLSCRASQSVSSSYFAWYQQKPGQAPRLLIYGASSRATGIPDRFSGSGSGTDFTLTISRLEPEDFAVYYCQQLYTFGQGTKLEIKR"
  EC50: "6.4 ng/mL"
- BINDER: "HL CV07-315 (antibody, V domains shown) VH: EVQLVESGGGLVQPGRSLRLSCAASGFTFDDYAMHWVRQAPGKGLEWVSGISWNSGSIGYADSVKGRFTISRDNAKNSLYLQMNSLRAEDTALYYCAKDFLWDLHPPRYYGMDVWGQGTTVTVSS VL: QSVLTRPPSVSAAPGQKVTISCSGSSSNIGNNYVSWYQQLPGTAPKLLIYENNKRPSGIPDRFSGSKSGTSATLGITGLQTGDEADYYCGTWDSSLNGVFGGGTKLTVLG"
  EC50: "7.2 ng/mL"
